// reported Cures for each item listed
# Test system: Plasmodium cynomolgi
# Assay overview: Cures in Plasmodium cynomolgi infected rhesus monkey at 1 mg/kg, n=1
# Type: functional

| Compound | System name | Cures |
| --- | --- | --- |
| COc1cc(NC(C)CCCN)c2ncccc2c1Oc1ccc(F)c(C(F)(F)F)c1 (stereo unspecified) | Plasmodium cynomolgi | 1 |
| COc1cc(NC(C)CCCN)c2ncccc2c1Oc1ccc(OC(F)(F)F)cc1 (stereo unspecified) | Plasmodium cynomolgi | 0 |
| COc1ccc(Oc2c(OC)cc(NC(C)CCCN)c3ncccc23)cc1 (stereo unspecified) | Plasmodium cynomolgi | 0 |
| COc1cc(NC(C)CCCN)c2ncccc2c1Oc1ccc(NC(C)=O)cc1 (stereo unspecified) | Plasmodium cynomolgi | 0 |
| COc1cc(NC(C)CCCN)c2ncccc2c1Oc1cc(C(F)(F)F)cc(C(F)(F)F)c1 (stereo unspecified) | Plasmodium cynomolgi | 0 |
| COc1cc(NC(C)CCCN)c2ncccc2c1Oc1cccc(C(F)(F)F)c1 (stereo unspecified) | Plasmodium cynomolgi | 1 |
